# log10 of GI50 listing for each entry below
# System: MV4:11 human cancer cell lines
# protocol summary: Cellular viability / anti-proliferative assay, CellTiter-Glo, 5 day protocol
# Assay type: cell-based
# settings: Homo sapiens, MV4-11, 120 h, MV4:11 cells; 5 day incubation; CellTiter-Glo; mean of at least two replicates; read-out: GI50 on cellular proliferation of MV4:11 human cancer cell lines
recorded endpoint: log10 of GI50 (log10 of the value in nM)

{"smiles str": "CCn1cc(-c2cc(Cn3ccnc3)cc3c2CCN([C@H]2CCOc4ccc(OC)cc42)C3=O)c(C(F)(F)F)n1", "readout number": 1.36}
{"smiles str": "Cc1nccn1Cc1cc2c(c(-c3cn(C)nc3C(F)(F)F)c1)CCN(c1cccc3ccccc13)C2=O", "readout number": 3.19}
{"smiles str": "Cc1ccc2nccc(N3CCc4c(cc(Cn5ccnc5)cc4-c4cn(C)nc4C(F)(F)F)C3=O)c2c1", "readout number": 1.81}
{"smiles str": "Cc1ccc2cncc(N3CCc4c(cc(Cc5cn(C)cn5)cc4-c4cn(C)nc4C(F)(F)F)C3=O)c2c1", "readout number": 2.28}
{"smiles str": "COc1ccc2c(c1)c(N1CCc3c(cc(Cn4ccnc4C)cc3-c3cn(C)nc3C(F)(F)F)C1=O)cn2C", "readout number": 1.68}
{"smiles str": "CCc1cc(-c2cnn(C)c2)c2nccc(N3CCc4c(cc(Cn5ccnc5)cc4-c4cn(C)nc4C(F)(F)F)C3=O)c2c1", "readout number": 1.58}
{"smiles str": "COc1cc(OC)c2c(c1)c(N1CCc3c(cc(Cn4ccnc4)cc3-c3cn(C)nc3C(F)(F)F)C1=O)cn2C", "readout number": 1.96}

Values were extracted from patent US12692249B2.
